tested-system: T1, FX activation peptide 12-mer DPTENPFDLLDF (human)
T1 peptide: DPTENPFDLLDF-biotin
protocol-text: peptide ELISA
Ends that are not written are not given here.
reported-property: ELISA signal relative to background

• Nb 501A02 (VHH, monovalent control Nanobody; also called control Nanobody; not shown: C-terminal FLAG3 and HIS6 tag) VHH: EVQLVESGGGLVQPGGSLRLSCAASGFTFSNYEMSWVRQAPGKGLEWVSDIGSGGGVSTYYADSVKGRFTISRDNAKNTLYLQMNSLKPEDTAMYYCARGWTYGSDGMDYWGKGTLVTVSS = 0.88
• Nb 729A04 (VHH, monovalent Nanobody; not shown: C-terminal FLAG3 and HIS6 tag) VHH: EVQLVESGGGVVQPGGSLRLSCAASGFTFSDYAMSWVRQAPGKGLEWVSGITSGGGRTYYADSVKGRFTISRDNSKNTLYLQMNSLRPEDTALYYCAAVRTLGLRGSYDYWGQGTLVTVSS = 4.03
• Nb 701B09 (VHH, monovalent Nanobody; also called Nb 701609; not shown: C-terminal FLAG3 and HIS6 tag) VHH: EVQLVESGGGVVQPGGSLRLSCAASGRTFSTYAMGWFRQAPGKEREFVAAISWSGSRTYYADSVKGRFTISRDNSKNTVYLQMNSLRPEDTALYYCAADATPANGELDYWGQGTLVTVSS = 2.87
• Nb 702C12 (VHH, monovalent Nanobody; not shown: C-terminal FLAG3 and HIS6 tag) VHH: EVQLVESGGGVVQPGGSLRLSCVASGRTFSRYAMGWFRQAPGKEREFVAAISRRGGSTNYADSVKGRFTISRDNSKNTVYLQMNSLRPEDTALYYCAADYSSGDGYLDYWGQGTLVTVSS = 4.16
